Source: patent US12583820B2

# studySystem: 3CLpro of SARS-CoV-2 (Severe acute respiratory syndrome coronavirus 2, UniProt P0DTD1)
# Construct: The codon-optimized cDNA of full length of 3CLpro of SARS-CoV-2; 6xHis (N); made in house; pET-28a(+) vector (points to E. coli, my inference)
# assayOverview: biochemical
# Format: biochemical
pIC50: −log10 of the molar value.
The compounds listed here are annotated with their pIC50.

>  <compound>
CCCCC1CCC(OC(=O)NC(CC(C)C)C(=O)NC(C=O)CC2CCNC2=O)CC1 (centres unmarked)

>  <studySystem>
3CLpro of SARS-CoV-2 (Severe acute respiratory syndrome coronavirus 2, UniProt P0DTD1)

>  <pIC50>
6.80

$$$$
>  <compound>
CCCCC(OC(=O)N[C@@H](CC(C)C)C(=O)N[C@H](C=O)C[C@@H]1CCNC1=O)C1CCC(F)(F)CC1 (some centres unmarked) [Compound 16b]

>  <studySystem>
3CLpro of SARS-CoV-2 (Severe acute respiratory syndrome coronavirus 2, UniProt P0DTD1)

>  <pIC50>
6.80

$$$$
>  <compound>
CC(C)C[C@H](NC(=O)OC(c1ccccc1)C1CCC(F)(F)CC1)C(=O)N[C@@H](C[C@@H]1CCNC1=O)C(O)S(=O)(=O)O (some centres unmarked) [Compound 15c]

>  <studySystem>
3CLpro of SARS-CoV-2 (Severe acute respiratory syndrome coronavirus 2, UniProt P0DTD1)

>  <pIC50>
6.80

$$$$
>  <compound>
CC(C)C[C@H](NC(=O)OCC(C)(C)Oc1ccc(Cl)cc1)C(=O)N[C@H](C=O)CC1CCNC1=O (some centres unmarked)

>  <studySystem>
3CLpro of SARS-CoV-2 (Severe acute respiratory syndrome coronavirus 2, UniProt P0DTD1)

>  <pIC50>
6.59

$$$$
>  <compound>
CC(C)C[C@H](NC(=O)OCc1cccc(F)c1)C(=O)N[C@@H](C[C@@H]1CCNC1=O)C(O)S(=O)(=O)O (some centres unmarked) [Compound 18c]

>  <studySystem>
3CLpro of SARS-CoV-2 (Severe acute respiratory syndrome coronavirus 2, UniProt P0DTD1)

>  <pIC50>
6.51

$$$$
>  <compound>
CCCCC(OC(=O)N[C@@H](CC(C)C)C(=O)N[C@@H](C[C@@H]1CCNC1=O)C(O)S(=O)(=O)O)C1CCC(F)(F)CC1 (some centres unmarked) [Compound 16c]

>  <studySystem>
3CLpro of SARS-CoV-2 (Severe acute respiratory syndrome coronavirus 2, UniProt P0DTD1)

>  <pIC50>
6.60

$$$$
>  <compound>
CC(C)C[C@H](NC(=O)OC(C)C1CCC(F)(F)CC1)C(=O)N[C@H](C=O)C[C@@H]1CCNC1=O (some centres unmarked) [Compound 12b]

>  <studySystem>
3CLpro of SARS-CoV-2 (Severe acute respiratory syndrome coronavirus 2, UniProt P0DTD1)

>  <pIC50>
6.68

$$$$
>  <compound>
CC(C)C[C@H](NC(=O)OCc1ccccc1F)C(=O)N[C@H](C=O)C[C@@H]1CCNC1=O [Compound 17b]

>  <studySystem>
3CLpro of SARS-CoV-2 (Severe acute respiratory syndrome coronavirus 2, UniProt P0DTD1)

>  <pIC50>
6.42

$$$$
